Origin of measurements: PubChem BioAssay AID588474

Readings of inhibition for the listed compounds
assayed.system: Platelet-activating factor acetylhydrolase (Mus musculus) (UniProt Q60963)
Sequence (Q60963 whole entry, looked up): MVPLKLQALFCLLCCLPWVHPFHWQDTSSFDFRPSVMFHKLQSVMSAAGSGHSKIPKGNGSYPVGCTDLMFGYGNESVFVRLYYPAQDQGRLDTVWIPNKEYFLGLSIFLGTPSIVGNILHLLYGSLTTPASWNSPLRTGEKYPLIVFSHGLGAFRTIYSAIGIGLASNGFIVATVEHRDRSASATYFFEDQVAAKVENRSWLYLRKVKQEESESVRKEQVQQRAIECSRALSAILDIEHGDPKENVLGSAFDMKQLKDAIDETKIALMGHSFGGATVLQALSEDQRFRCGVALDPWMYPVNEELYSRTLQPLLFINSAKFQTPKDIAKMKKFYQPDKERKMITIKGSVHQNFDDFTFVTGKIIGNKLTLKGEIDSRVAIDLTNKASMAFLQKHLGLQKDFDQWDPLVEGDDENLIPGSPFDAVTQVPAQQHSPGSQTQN
measurement.notes: mouse pPAFAH inhibitors, late-stage follow-up, orthogonal assay, biochemical, gel-based competitive ABPP, fluorescence (AID 588474)
assay.setup: recombinant mouse pPAFAH, FP-Rh fluorescence, at 5 µM, stronger effect = higher value
The source made the active and inactive calls.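 The calls were made as follows: active = inhibition of at least 75% in the gel-based probe competition assay; inactive = inhibition below 75%.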
measure: inhibition

{"compound.structure": "N#Cc1ccccc1Cn1cc(C(=O)c2ccccc2F)c2ccccc21", "result": "8% (inactive)"}
{"compound.structure": "O=C(Oc1ccc([N+](=O)[O-])cc1)N1CCC(N2CCCCC2)CC1", "result": "84% (active)"}
{"compound.structure": "CN1C[C@H](CNC(=O)OCc2ccccc2)C[C@@H]2c3cccc4c3c(cn4C)C[C@H]21", "result": "15% (inactive)"}
{"compound.structure": "O=C(c1ccco1)c1cn(Cc2ccccc2Cl)c2ccccc12", "result": "9% (inactive)"}
{"compound.structure": "Cc1cc(C(=O)CS(=O)(=O)c2ccccc2)cc(C)c1OC(=O)N(C)C", "result": "36% (inactive)"}
{"compound.structure": "N#Cc1ccccc1Cn1cc(C(=O)c2cccs2)c2ccccc21", "result": "44% (inactive)"}
